# test-details: Half life in Sprague-Dawley rat at 1 mg/kg, iv
# Format: ADME, organism-based
# Design: dose 1 mg/kg, route intravenous
# recorded-conditions: in vivo
readout: half-life (h)

Cc1nc2ncc(Oc3ccc(F)cc3)nc2c(=O)n1C[C@H]1CCCN(C(C)C)C1 : 3.01

1 = Cc1nc2ccc(Oc3ccc(Cl)cc3F)nc2c(=O)n1C[C@H]1CCCN(C(C)C)C1
2 = Cc1nc2ccc(Oc3ccc(F)cc3)nc2c(=O)n1C[C@H]1CCCN(C(C)C)C1
Incoming: I'm curious whether 1 or 2 has the smaller half-life number. Which is it? Mark your answer with the label of the selected entry.
Outgoing: 1
(1: 4.71 h, 2: 7.16 h)

====

# test-details: Oral bioavailability in Sprague-Dawley rat at 1 mg/kg
# Type: ADME, organism-based
# recorded-conditions: in vivo, 3 mg/kg, in the assay text read “3 mg/kg” for “1 mg/kg”
readout: bioavailability (%)

Cc1nc2ccc(Oc3ccc(Cl)cc3F)nc2c(=O)n1C[C@H]1CCCN(C(C)C)C1 : 35

P = Cc1nc2ncc(Oc3ccc(F)cc3)nc2c(=O)n1C[C@H]1CCCN(C(C)C)C1
Q = Cc1nc2ccc(Oc3ccc(F)cc3)nc2c(=O)n1C[C@H]1CCCN(C(C)C)C1
Incoming: Thinking about recorded bioavailability values, which is higher, P or Q ? Mark your answer with the label of the selected entry.
Outgoing: Q
(Q: 60%, P: 33%)

====

# experimental-target: Growth hormone secretagogue receptor type 1 (Homo sapiens, UniProt Q92847)
# Sequence (Q92847 whole entry): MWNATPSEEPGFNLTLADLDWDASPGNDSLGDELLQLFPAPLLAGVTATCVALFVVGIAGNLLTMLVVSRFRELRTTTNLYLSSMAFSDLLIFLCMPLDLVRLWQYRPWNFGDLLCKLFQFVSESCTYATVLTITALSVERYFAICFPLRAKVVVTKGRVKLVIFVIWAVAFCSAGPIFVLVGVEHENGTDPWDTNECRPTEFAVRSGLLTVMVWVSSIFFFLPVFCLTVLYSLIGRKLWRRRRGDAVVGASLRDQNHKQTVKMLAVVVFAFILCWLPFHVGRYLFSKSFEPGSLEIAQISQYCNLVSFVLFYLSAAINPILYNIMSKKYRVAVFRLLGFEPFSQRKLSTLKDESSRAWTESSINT
# test-details: Displacement of [125I]-Ghrelin from human GHSR membranes overexpressing GSH-R1a by scintillation counting
pKi: −log10 of the molar value.
readout: pKi

Example cases with answers are listed next.
Cc1nc2ncc(Oc3ccc4ncsc4c3)nc2c(=O)n1C[C@H]1CCCN(C(C)C)C1 : 9.59
Cc1nc2cnc(Oc3ccc(Cl)cc3F)cc2c(=O)n1C[C@H]1CCCN(C(C)C)C1 : 9.70

I = Cc1nc2ccc(Oc3ccc(Cl)cc3F)nc2c(=O)n1C[C@H]1CCCN(C(C)C)C1
II = Cc1nc2cnc(Oc3ccc4c(c3)ncn4C)cc2c(=O)n1C[C@H]1CCCN(C(C)C)C1
III = Cc1nc2ccc(Oc3ccc4ncsc4c3)nc2c(=O)n1C[C@H]1CCCN(C(C)C)C1
Incoming: Put the items in order so that reported pKi rises from first to last. Sort the labels as requested; that list is your answer.
Outgoing: II, I, III
(II: 9.30, I: 9.70, III: 11.00)

====

# test-details: AUC in Sprague-Dawley rat at 3 mg/kg, po
# Format: ADME, organism-based
# Set-up: dose 3 mg/kg, route oral
# recorded-conditions: plasma
readout: AUC (ng·h/mL)

Cc1nc2ccc(Oc3ccc(F)cc3)nc2c(=O)n1C[C@H]1CCCN(C(C)C)C1 : 941

I = Cc1nc2ccc(Oc3ccc(Cl)cc3F)nc2c(=O)n1C[C@H]1CCCN(C(C)C)C1
II = Cc1nc2ncc(Oc3ccc(F)cc3)nc2c(=O)n1C[C@H]1CCCN(C(C)C)C1
Incoming: I'm curious whether I or II has the smaller AUC number. Which is it? Mark your answer with the label of the selected entry.
Outgoing: I
(I: 736 ng·h/mL, II: 1170 ng·h/mL)

====

# experimental-target: Growth hormone secretagogue receptor type 1 (Homo sapiens, UniProt Q92847)
# test-details: Displacement of [125I]-Ghrelin from human GHSR membranes overexpressing GSH-R1a by scintillation counting
readout: Ki (nM)

Example cases with answers are listed next.
Cc1nc2ccc(Oc3ccc(Br)cc3F)nc2c(=O)n1C[C@H]1CCCN(C(C)C)C1 : 0.01
Cc1nc2ccc(Oc3ccc4c(c3)OCO4)nc2c(=O)n1C[C@H]1CCCN(C(C)C)C1 : 0.9
Cc1nc2ncc(Oc3ccc4c(c3)OCO4)nc2c(=O)n1C[C@H]1CCCN(C(C)C)C1 : 1.5

A = Cc1nc2ncc(Oc3ccc(Cl)cc3F)nc2c(=O)n1C[C@H]1CCCN(C(C)C)C1
B = Cc1nc2cnc(Oc3ccc(F)c4cccnc34)cc2c(=O)n1C[C@H]1CCCN(C(C)C)C1
Incoming: Thinking about recorded Ki values, which is higher, A or B ? Mark your answer with the label of the selected entry.
Outgoing: B
